# Tested on: HOP-62 NSCLC
# PROTOCOL SUMMARY: NCI-60 one-dose screen, 48 h
# TEST PARAMETERS: 10 µM
Compounds without any hit were thinned out: in the full panel of roughly 83,000, 20% have a hit. The source made the active and inactive calls. How the source made its calls: active means growth percent below 10; inactive means the rest.
Labels: y for active, n for inactive

> print(dat)
                                    compound  label.value
 1  C=C(C)[C@@H]1CC[C@]2(C)[C@H](CC=C3[C@@H]4CC(C)(C)CC[C@]4(C(=O)N4CCOCC4)CC[C@]32C)[C@@]1(C)CCCN            y
 2  CCOP(=O)(OCC)O[C@H]1CC[C@]2(C)[C@H]3CC[C@@H]4[C@@H]([C@](C)(O)CCC=C(C)C)CC[C@@]4(C)[C@]3(C)CC[C@H]2C1(C)C            n
 3  Cc1cc(C)nc(NS(=O)(=O)c2ccc(N/C(N)=N/c3nccc(-c4ccccc4)n3)cc2)n1            n
 4  CCOC(=O)C1=C(N)N(c2ccccc2)C2=C(C(=O)CC(C)(C)C2)C1c1ccc(Cl)cc1 (configuration not stated)            n
 5  COc1cc(/C=N/NC(=O)c2ccc3nc(-c4ccc(Cl)cc4)[nH]c3c2)cc(OC)c1OC            y
 6  Cc1noc2c(Cc3ccc([N+](=O)[O-])cc3)nn(CC(=O)N/N=C/c3ccc(Br)cc3)c(=O)c12            n
 7  CC(=O)Nc1ccc(-c2cn(-c3cccc(C(=O)Nc4cccc(OC(F)(F)F)c4)c3)nn2)cn1            n
 8     C=C(c1ccc(OC)c(N)c1)c1cc(C)nc2ccccc12            n
 9  CC(=O)Nc1ccc(-n2cnc3cc(-c4ccc(O)cc4)ccc32)cc1F            n
10  CC(=C(c1ccc(OCCN2CCCCCC2)cc1)c1ccc(OCCN2CCCCCC2)cc1)c1ccc(Cl)cc1            y
11  CS(=O)(=O)Nc1ccc(-c2ccc3c(c2)ncn3-c2ccc(NC(=O)Nc3ccc(Cl)c(C(F)(F)F)c3)cc2)cc1            y
12  CSc1nc(-c2cccc(C)c2)c2cc(-c3ccccc3)n(C)c2n1            n

----------
growth by entry:
# Tested on: SNB-19 CNS
# PROTOCOL SUMMARY: NCI-60 one-dose screen, 48 h (100 = growth as untreated, 0 = no growth, -100 = all killed)
# TEST PARAMETERS: 10 µM
This is part of a sample that, as a whole, favours compounds with a hit. Of some 83,000 tested, about 20% had one in any assay.
QUANTITY: growth (%)

> print(dat)
                                    compound  recorded.number
 1  CN1C/C(=C\c2ccc(O)cc2O)c2[o+]c3cc(O)ccc3cc2C1             42.1
 2  CCOC(=O)N/C(=C1/OCCN1C)[P+](c1ccccc1)(c1ccccc1)c1ccccc1             71.6
 3  Cc1ccc(CNC(=O)Cc2ccc3c(c2)CN(C2CCC(=O)NC2=O)C3=O)cc1 (configuration not stated)                4
 4  O=c1[nH]n(C(=S)N/N=C/c2ccc(F)cc2)c(=O)c2ccccc12             47.6
 5  COC[C@@H](CC(C)C)N=C1N/C(=C\c2ccc3ncsc3c2)C(=O)N1C             14.6
 6  Cc1noc2c(Cc3ccccc3)nn(CC(=O)N/N=C/c3ccc(Cl)cc3)c(=O)c12             71.3
 7  COc1ccc(-c2nc(S(=O)(=O)c3ccc(C)cc3)c(S(=O)(=O)CC(=O)N(C)Cc3ccccc3)o2)cc1             72.1
 8   O=C1NC(=NC2CCCCCC2)N/C1=C\c1ccc2ncoc2c1             29.7
 9  COC[C@@H](CC(C)C)N=C1NC(=O)/C(=C/c2ccc3ncoc3c2)N1             17.5
10  CC1(C)CC[C@]2(C(=O)N3CCOCC3)CC[C@]3(C)C(=CC[C@@H]4[C@@]5(C)CC[C@H](NCO)C(C)(C)[C@@H]5CC[C@]43C)[C@H]2C1            -95.8
11  Cc1ccc(-c2nc3ccc(C(=O)N=Nc4c(O)[nH]c5ccc(Br)cc45)cc3[nH]2)cc1             46.1
12  Cc1ccc(F)cc1N/C=c1\s/c(=C(\C#N)C(=O)Nc2ccccc2)n(-c2ccccc2)c1=O             36.2
13  Cc1nn(-c2ccccc2)c2ncn(CC(=O)N/N=C/c3c[nH]c4ccccc34)c(=O)c12             91.5
14  COc1cnc2c(c1)C(=O)c1c-2n(CCCNC(C)C)c(=O)c2cc(OC)c(OC)cc12             25.2
15  C/C(=C\CC/C=C(\C)CC/C=C(\C)CC[C@@H](O)C(C)(C)O)CC/C=C(\C)CC[C@@H](O)C(C)(C)O             61.4
16  Cc1noc2c(Cc3ccccc3)nn(CC(=O)N/N=C/c3ccc(Br)cc3)c(=O)c12             75.4
17  O=C1NC(=NC23CC4CC(CC(C4)C2)C3)N/C1=C\c1ccc2ncsc2c1             6.09
18  CC(C)C1=C[C@@]23CC[C@@H]4[C@](C)(CCC[C@]4(C)C(=O)NCc4ccccc4)[C@H]2C[C@@H]1[C@H]1C(=O)OC(=O)[C@H]13             37.9
19  O=c1oc2ccc(-c3ccc(F)cc3F)cc2c(=O)n1-c1ccc(F)cc1             13.3
20  N#Cc1c(Cl)nc(SCc2ccc(F)cc2)nc1-c1ccc(F)cc1               98
21  CN1C(=O)N(C)C2SC(N/N=C/c3cccs3)=NC21 (configuration not stated)             30.3
22  Cc1cc(C)nc(NS(=O)(=O)c2ccc(N/C(N)=N/c3nccc(-c4ccccc4)n3)cc2)n1             77.8
23   O=C(Nc1cc(Cl)cc(Cl)c1)Nc1cc(Cl)cc(Cl)c1              5.6
24  Cc1ccc(/C=C/C(=O)c2ccc(NC(=O)CSc3nnc(-c4c[nH]c5ccccc45)n3-c3ccccc3)cc2)c(C)c1             72.2
25  CCCCCc1ccc(S(=O)(=O)Nc2cc(-c3csc(N(C)C(C)=O)n3)ccc2N2CCN(C)CC2)cc1               41
26  Cc1cccc2cc(-c3cc(-c4ccccc4)nc(=O)[nH]3)c(Cl)nc12               68
27  CCC(C)S(=O)(=O)c1oc(-c2ccc(C)cc2)nc1S(=O)(=O)c1ccccc1 (configuration not stated)            0.128

----------
# System: TK-10 renal
# PROTOCOL SUMMARY: NCI-60 one-dose screen, 48 h (100 = growth as untreated, 0 = no growth, -100 = all killed)
# TEST PARAMETERS: 10 µM
The panel holds about 83,000 compounds, 20% with a hit somewhere; the sample as a whole holds those more often.
QUANTITY: growth (%)

> print(dat)
                                    compound    tested.on  quantity  recorded.number
 1  CC(C)(C)c1ccc(NCc2cn(-c3ccc(C(=O)O)cc3)nc2-c2ccc(C#N)cc2)cc1  TK-10 renal    growth             86.3
 2  N#Cc1c(NC(=O)c2ccc(C(F)(F)F)cc2C(F)(F)F)sc2c1CCC(=O)C2  TK-10 renal    growth            -27.8
 3  Cc1ccc(-c2nc3ccc(C(=O)N=Nc4c(O)[nH]c5ccc(Br)cc45)cc3[nH]2)cc1  TK-10 renal    growth              114
 4  COC[C@@H](CC(C)C)N=C1NC(=O)/C(=C/c2ccc3ncoc3c2)N1  TK-10 renal    growth             36.5
 5  Cc1cc(=O)oc2cc(OCCCCOc3ccc(/C=C/C(=O)Nc4ccccc4[N+](=O)[O-])cc3)ccc12  TK-10 renal    growth              104
 6  O=C(c1ccc(Cl)cc1)C1[C@H](c2ccc(Br)cc2)[C@@H](c2ccccc2)NC12C(=O)Nc1ccc(Cl)cc12 (stereo not given in full)  TK-10 renal    growth            -17.4
 7  COc1ccc(-c2cc(-c3cc(C(=O)c4ccc(Br)cc4)n4ccc(C)cc34)nc(N)c2C#N)cc1  TK-10 renal    growth              132
 8  COc1cc2c3c(n(CCCNC(C)C)c(=O)c2cc1OC)-c1nc2c(cc1C3=O)OCO2  TK-10 renal    growth             97.2
 9  O=C(Nc1ccc(I)cc1)Nc1nc2ccc([N+](=O)[O-])cc2s1  TK-10 renal    growth              -92
10  COc1ccc2nc(Cl)c(-c3cc(-c4ccccc4)nc(=O)[nH]3)cc2c1  TK-10 renal    growth             96.9
11  O=C(c1ccc(O)cc1)C1[C@H](c2ccccc2Br)[C@@H](c2ccccc2)NC12C(=O)Nc1ccc(Br)cc12 (stereo not given in full)  TK-10 renal    growth             76.2
12        Brc1ccc(N/N=C/c2c[nH]c3ccccc23)nc1  TK-10 renal    growth               70
13  CCOC(=O)c1sc(N/N=C(\C)c2ccc3c(c2)Nc2ccccc2S3)nc1C  TK-10 renal    growth             36.8
14  CC(=O)Nc1ccc(-n2cnc3cc(-c4ccc(NS(C)(=O)=O)cc4)ccc32)cc1  TK-10 renal    growth             83.7
15  O=C(CSc1nnc(-c2c[nH]c3ccccc23)n1-c1ccccc1)Nc1ccc(C(=O)/C=C/c2cccc([N+](=O)[O-])c2)cc1  TK-10 renal    growth              115
16  COc1cc2c(c(OC)c1OC)C(=O)CC(c1cccc(NC(=O)c3cccc(N)c3)c1)O2 (stereo not given)  TK-10 renal    growth              118
17  O=c1c2ccccc2nc(COc2ccccc2)n1/N=C/c1ccc(N2CCOCC2)cc1  TK-10 renal    growth             81.6
18  CS(=O)(=O)Nc1ccc(-c2ccc3c(c2)ncn3-c2ccc(NC(=O)Nc3ccc(Cl)c(C(F)(F)F)c3)cc2)cc1  TK-10 renal    growth            -6.45
19  Brc1ccc(/C=N/Nc2ncnc3sc4c(c23)CCN(Cc2ccccc2)C4)cc1  TK-10 renal    growth              125
20  Cc1ccc(/C=C/C(=O)c2ccc(NC(=O)CSc3nnc(-c4c[nH]c5ccccc45)n3-c3ccccc3)cc2)c(C)c1  TK-10 renal    growth             73.4
21  CNC(=O)c1cc(-c2ccc(NC(=O)Nc3ccc(C)cc3)cc2)nc2cccnc12  TK-10 renal    growth              108
22  O=C1Nc2ccc(Cl)cc2/C1=C/c1ccc(OCc2ccccn2)cc1  TK-10 renal    growth             90.1
23  COc1nccnc1NS(=O)(=O)c1ccc(NC2=C(Cl)C(=O)c3nc(C)ccc3C2=O)cc1  TK-10 renal    growth              132
24  CC(=O)Nc1ccc(-n2cnc3cc(-c4ccc(O)cc4)ccc32)cc1C  TK-10 renal    growth             73.9
25  COc1ccc(/C=C/C(=O)c2ccc(NC(=O)CN3C(=O)NC(C)(c4ccccc4)C3=O)cc2)cc1 (stereo not given)  TK-10 renal    growth              109
